Data origin: patent EP4603105A1

- STUDY_TARGET: GDP-bound KRAS wild-type protein (Homo sapiens)
- Sequence (P01116 1-188 isoform P01116-2): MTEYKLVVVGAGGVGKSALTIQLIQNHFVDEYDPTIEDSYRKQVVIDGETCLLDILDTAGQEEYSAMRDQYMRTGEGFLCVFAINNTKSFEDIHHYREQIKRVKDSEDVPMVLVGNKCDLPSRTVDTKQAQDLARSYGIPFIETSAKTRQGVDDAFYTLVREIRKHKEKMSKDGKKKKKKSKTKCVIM
- PROTOCOL_TEXT: Binding to KRAS by surface plasmon resonance (SPR), dissociation constant KD
- ASSAY_CONTEXT: Single Cycle Kinetics, 1:1 binding model
TEST_READOUT: Kd (nM)
All answers are understood in nM, so give the number only.

CCO[C@@H]1C[C@H]2C(=O)NC3(CCC3)C(=O)N(C)[C@@H](C(CC)CC)C(=O)N(C)[C@H](C(=O)N3CCOCC3)CC(=O)N(C)[C@@H](CC3CC3)C(=O)N[C@@H]([C@@H](C)CC)C(=O)N(C)CC(=O)N(C)[C@H]3C/C=C\CCN(C3=O)[C@@H](Cc3ccc(F)cc3)C(=O)N(C)CC(=O)N[C@@H](CCc3cc(F)c(C(F)(F)F)c(F)c3)C(=O)N2C1    0.95
CCO[C@@H]1C[C@H]2C(=O)NC3(CCC3)C(=O)N(C)[C@@H](C3CCCC3)C(=O)N(C)[C@H](C(=O)N3CCCC3)CC(=O)N(C)[C@@H](CC3CCC3)C(=O)N[C@@H]([C@@H](C)CC)C(=O)N(C)CC(=O)N(C)[C@H]3C/C=C\CCN(C3=O)[C@@H](Cc3ccc(C)cc3)C(=O)N(C)CC(=O)N[C@@H](CCc3cc(F)c(C(F)(F)F)c(F)c3)C(=O)N2C1    0.24

// field: Kd; key: CCO[C@@H]1C[C@H]2C(=O)NC3(CCCC3)C(=O)N(C)[C@@H](C3CCCC3)C(=O)N(C)[C@H](C(=O)N3CCOCC3)CC(=O)N(C)[C@@H](CC)C(=O)N[C@@H]([C@@H](C)CC)C(=O)N(C)CC(=O)N(C)[C@H]3C[C@H](C)C(C)CN(C3=O)[C@@H](Cc3ccc(C(F)(F)F)cc3)C(=O)N(C)CC(=O)N[C@@H](CCc3cc(F)c(C(F)(F)F)c(F)c3)C(=O)N2C1 (stereo partly drawn) ; value = 0.076
